- assay.remarks: Selectivity index, ratio of IC50 for African green monkey Vero cells to IC50 for Plasmodium falciparum D6
- Assay type: toxicity, cell-based
- condition.context: read-out: Ratio IC50
Exercise: for every item that follows, state its recorded selectivity ratio.

q: Please list selectivity ratio recorded for the compound C(=C\c1ccccc1)/Cn1cc(-c2ccccc2)nn1
a: > 1.58

q: Look up and report measured selectivity ratio for this entry: CC(C)=CCC/C(C)=C/CC/C(C)=C\Cn1cc(CCO)nn1
a: > 5.46

q: Write down selectivity ratio measured for item CCCCCCCCCCn1cc(C(=O)OC)nn1
a: > 1.58

q: // Input: CCOC(=O)Cn1cc(C(=O)OC)nn1 . Output its selectivity ratio only.
a: > 1.7

q: Please look at this compound and report its selectivity ratio: CCCCCCCCCCc1cn(Cc2ccccc2)nn1
a: > 1.44

q: Specify measured selectivity ratio for CCCc1cn(C/C=C/c2ccccc2)nn1 .
a: < 1

q: Give a short answer stating reported selectivity ratio for CCCCCCCCn1cc(CO)nn1 .
a: > 1.7

q: Specify reported selectivity ratio for the compound shown: COC(=O)c1cn(CC=C(C)C)nn1
a: > 1

q: Output selectivity ratio of CC(C)=CCC/C(C)=C/CC/C(C)=C/Cn1cc(C(C)(C)O)nn1
a: > 6.09

q: Tell me measured selectivity ratio for C[C@@H]1CC[C@H]2[C@@H](C)C(=O)O[C@@H]3O[C@@]4(C)CC[C@@H]1[C@]32OO4 please.
a: > 179

q: Tell me its selectivity ratio given CCCCCc1cn(CCCc2ccccc2)nn1 as the entry.
a: > 1.13

q: Please give the documented selectivity ratio of CCCCCCCCc1cn(C/C=C/c2ccccc2)nn1
a: > 1.48

q: Check the records and state selectivity ratio for CCCCCc1cn(C/C=C(\C)CC/C=C(\C)CCC=C(C)C)nn1
a: > 3.96

q: Return selectivity ratio for the following compound: CCCc1cn(CCCc2ccccc2)nn1
a: > 1.36

###

- assay.remarks: Cytotoxicity against African green monkey Vero cells incubated for 48 hrs by Neutral Red assay
- Assay type: toxicity, cell-based, Chlorocebus sabaeus
endpoint.label: IC50 at 48 h

q: Specify measured IC50 at 48 h for CCCCCc1cn(CCCc2ccccc2)nn1 .
a: > 18.5 µM

q: Note down IC50 at 48 h recorded for C(=C\c1ccccc1)/Cn1cc(-c2ccccc2)nn1
a: > 18.2 µM

q: Recall and state the measured IC50 at 48 h for CCCCCCCCn1cc(CO)nn1 .
a: > 22.5 µM

q: Please indicate IC50 at 48 h recorded for CCCCCc1cn(C/C=C(\C)CC/C=C(\C)CCC=C(C)C)nn1
a: > 13.8 µM

q: Provide only the value of recorded IC50 at 48 h for CC(C)=CCC/C(C)=C/CC/C(C)=C/Cn1cc(C(C)(C)O)nn1
a: > 14.3 µM

q: Quick one: give measured IC50 at 48 h for CCCc1cn(C/C=C/c2ccccc2)nn1
a: > 20.9 µM

q: Indicate its recorded IC50 at 48 h; the compound in question is COC(=O)c1cn(CC=C(C)C)nn1
a: > 24.3 µM

q: Respond only with IC50 at 48 h recorded for CCCCCCCCCCn1cc(C(=O)OC)nn1
a: > 17.8 µM

q: Indicate the recorded IC50 at 48 h value for this compound: CC(C)=CCC/C(C)=C/CC/C(C)=C\Cn1cc(CCO)nn1
a: > 15 µM

q: Specify reported IC50 at 48 h for the compound shown: CCCCCCCCc1cn(C/C=C/c2ccccc2)nn1
a: > 16 µM

q: Tell us which IC50 at 48 h value is on record for CCCCCCCCCCc1cn(Cc2ccccc2)nn1
a: > 15.9 µM

q: For CCOC(=O)Cn1cc(C(=O)OC)nn1 , write its IC50 at 48 h.
a: > 20.9 µM

q: Fill in IC50 at 48 h for record CCCc1cn(CCCc2ccccc2)nn1
a: > 20.7 µM
